Task for the reader: assign each of the following molecules its reported CC50 at 3 days.
# Assay Summary: Cytotoxicity in HeLa cells (ATP content, ATPlite kit)
# Format: cell-based
# Particulars: human, three days incubation, read-out: TOX HELA pCC50 (converted)

## Task Reported CC50 at 3 days, molecule N#Cc1ccc(-c2ncccc2N2CCN(c3ccncc3)CC2)cc1 : ____
## Result > 100 µM

## Task Reported CC50 at 3 days, molecule Fc1ccc(-c2ncccc2N2CCN(c3ccncc3)CC2)cc1 : ____
## Result > 89.1 µM

## Task Reported CC50 at 3 days, molecule CC(=O)c1cccc(-c2ncccc2N2CCN(c3ccccc3)CC2)c1 : ____
## Result > 100 µM

## Task Reported CC50 at 3 days, molecule COc1ccc(C(C)(O)c2ncccc2N2CCN(c3ccncc3)CC2)cc1 (stereo not shown) : ____
## Result > 100 µM

###

Assign labels as follows, please: true (1) for melting point below 200 °C; false (0) for melting point equal to or exceeding 200 °C.

## Task Field: below-cutoff. Rule: recorded melting point strictly less than 200 °C. Subject: Cc1ccc(-c2ccc(-c3ncccc3N3CCN(c4ccncc4)CC3)cc2)o1
## Result false (0)

## Task Field: below-cutoff. Rule: recorded melting point strictly less than 200 °C. Subject: Cn1ccc2c(-c3ncccc3N3CCN(c4ccncc4)CC3)cccc21
## Result true (1)

## Task Field: below-cutoff. Rule: recorded melting point strictly less than 200 °C. Subject: c1coc(-c2ccc(-c3nccnc3N3CCN(c4ccncc4)CC3)cc2)c1
## Result true (1)

## Task Field: below-cutoff. Rule: recorded melting point strictly less than 200 °C. Subject: c1cnc(-c2ccc3occc3c2)c(N2CCN(c3ccncc3)CC2)c1
## Result true (1)

## Task Field: below-cutoff. Rule: recorded melting point strictly less than 200 °C. Subject: c1cnc(-c2coc3ccccc23)c(N2CCN(c3ccncc3)CC2)c1
## Result false (0)

## Task Field: below-cutoff. Rule: recorded melting point strictly less than 200 °C. Subject: c1cnc(N2CCN(c3ccncc3)CC2)c(N2CCN(c3ccncc3)CC2)c1
## Result true (1)

## Task Field: below-cutoff. Rule: recorded melting point strictly less than 200 °C. Subject: FC(F)(F)Oc1ccc(-c2ncccc2N2CCN(c3ccncc3)CC2)cc1
## Result true (1)

## Task Field: below-cutoff. Rule: recorded melting point strictly less than 200 °C. Subject: Cn1ccc2cc(C(F)(F)F)c(-c3ncccc3N3CCN(c4ccncc4)CC3)cc21
## Result true (1)

## Task Field: below-cutoff. Rule: recorded melting point strictly less than 200 °C. Subject: Fc1cccc(-c2nccnc2N2CCN(c3ccccc3)CC2)c1
## Result true (1)

## Task Field: below-cutoff. Rule: recorded melting point strictly less than 200 °C. Subject: COc1ccc(-c2ncccc2N2CCN(c3ccncc3)CC2)cn1
## Result true (1)

## Task Field: below-cutoff. Rule: recorded melting point strictly less than 200 °C. Subject: c1cnc(-c2cccc3[nH]ccc23)c(N2CCN(c3ccncc3)CC2)c1
## Result false (0)

## Task Field: below-cutoff. Rule: recorded melting point strictly less than 200 °C. Subject: c1cnc(-c2ccc3c(c2)OCCO3)c(N2CCN(c3ccncc3)CC2)c1
## Result true (1)
